Target: Aminopeptidase N (Plasmodium falciparum (isolate 3D7)) (UniProt O96935)
Sequence (O96935 whole entry, looked up): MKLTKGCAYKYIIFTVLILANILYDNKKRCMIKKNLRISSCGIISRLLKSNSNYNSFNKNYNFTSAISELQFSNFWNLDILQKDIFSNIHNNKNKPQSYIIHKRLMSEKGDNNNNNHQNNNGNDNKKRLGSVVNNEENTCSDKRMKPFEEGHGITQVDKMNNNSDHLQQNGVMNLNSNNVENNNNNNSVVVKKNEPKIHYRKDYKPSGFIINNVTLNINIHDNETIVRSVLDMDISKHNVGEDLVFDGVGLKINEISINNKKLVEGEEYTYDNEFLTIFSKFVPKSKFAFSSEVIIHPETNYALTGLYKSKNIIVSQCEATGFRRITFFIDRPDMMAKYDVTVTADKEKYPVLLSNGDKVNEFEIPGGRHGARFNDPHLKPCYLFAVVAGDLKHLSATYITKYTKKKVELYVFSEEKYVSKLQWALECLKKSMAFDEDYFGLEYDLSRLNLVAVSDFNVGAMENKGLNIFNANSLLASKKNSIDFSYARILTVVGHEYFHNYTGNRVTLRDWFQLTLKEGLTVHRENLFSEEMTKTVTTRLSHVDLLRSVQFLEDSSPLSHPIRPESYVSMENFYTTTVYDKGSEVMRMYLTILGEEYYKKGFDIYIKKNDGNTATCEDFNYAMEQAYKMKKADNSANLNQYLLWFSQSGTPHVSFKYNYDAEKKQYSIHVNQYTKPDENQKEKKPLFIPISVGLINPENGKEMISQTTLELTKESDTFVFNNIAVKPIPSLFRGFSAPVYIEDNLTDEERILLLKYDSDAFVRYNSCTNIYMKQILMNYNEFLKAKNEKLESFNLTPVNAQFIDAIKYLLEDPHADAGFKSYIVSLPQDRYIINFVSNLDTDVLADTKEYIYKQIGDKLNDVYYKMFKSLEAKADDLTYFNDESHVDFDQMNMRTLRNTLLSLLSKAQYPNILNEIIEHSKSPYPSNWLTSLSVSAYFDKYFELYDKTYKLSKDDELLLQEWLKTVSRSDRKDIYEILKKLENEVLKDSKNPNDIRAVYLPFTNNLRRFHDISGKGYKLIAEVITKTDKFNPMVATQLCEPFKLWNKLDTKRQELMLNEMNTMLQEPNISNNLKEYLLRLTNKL
Assay: malaria alanyl aminopeptidase activity blockers – biochemical, fluorogenic H-Leu-NHMec substrate, 1536-well (AID 1445);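 note: plate controls were DMSO full reaction for no effect and no enzyme background for full effect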
Details: recombinant M1AAP, H-Leu-NHMec fluorogenic kinetic assay; at 30 µM, hits give high values unless noted
Among all 220,000 compounds or so, about 910 (0.41%) were called active. The sample holds actives, similar compounds and a random draw of the others, so the mix is not that of the screen. Potency and affinity values are given separately.
Property Name: inhibition (%)

CS(=O)(=O)c1ccc2nnn(OCC(=O)Nc3ccc(Br)cc3Br)c2c1	1.15
Cc1ccc(C(=O)NC(=S)Nc2ccc(CN3CCCCC3)cc2)c(C)c1	5.24
O=C(CSc1nnc(-c2ccccn2)n1Cc1ccccc1)N1CCOCC1	2.23
CCC(=O)c1c(NC(C)C)cc(C)oc1=O	2.35
CCc1ccc(C(=O)CN2C(=O)NC(C)(CCc3ccccc3)C2=O)cc1 (stereo unspecified)	0.01
CCC(=O)N1CCCn2c1nc1ccccc12	0.87

Values were extracted from PubChem BioAssay AID1445.
